Target: human mineralocorticoid receptor protein (MR) (Homo sapiens, UniProt P08235)
Sequence (P08235 1-984): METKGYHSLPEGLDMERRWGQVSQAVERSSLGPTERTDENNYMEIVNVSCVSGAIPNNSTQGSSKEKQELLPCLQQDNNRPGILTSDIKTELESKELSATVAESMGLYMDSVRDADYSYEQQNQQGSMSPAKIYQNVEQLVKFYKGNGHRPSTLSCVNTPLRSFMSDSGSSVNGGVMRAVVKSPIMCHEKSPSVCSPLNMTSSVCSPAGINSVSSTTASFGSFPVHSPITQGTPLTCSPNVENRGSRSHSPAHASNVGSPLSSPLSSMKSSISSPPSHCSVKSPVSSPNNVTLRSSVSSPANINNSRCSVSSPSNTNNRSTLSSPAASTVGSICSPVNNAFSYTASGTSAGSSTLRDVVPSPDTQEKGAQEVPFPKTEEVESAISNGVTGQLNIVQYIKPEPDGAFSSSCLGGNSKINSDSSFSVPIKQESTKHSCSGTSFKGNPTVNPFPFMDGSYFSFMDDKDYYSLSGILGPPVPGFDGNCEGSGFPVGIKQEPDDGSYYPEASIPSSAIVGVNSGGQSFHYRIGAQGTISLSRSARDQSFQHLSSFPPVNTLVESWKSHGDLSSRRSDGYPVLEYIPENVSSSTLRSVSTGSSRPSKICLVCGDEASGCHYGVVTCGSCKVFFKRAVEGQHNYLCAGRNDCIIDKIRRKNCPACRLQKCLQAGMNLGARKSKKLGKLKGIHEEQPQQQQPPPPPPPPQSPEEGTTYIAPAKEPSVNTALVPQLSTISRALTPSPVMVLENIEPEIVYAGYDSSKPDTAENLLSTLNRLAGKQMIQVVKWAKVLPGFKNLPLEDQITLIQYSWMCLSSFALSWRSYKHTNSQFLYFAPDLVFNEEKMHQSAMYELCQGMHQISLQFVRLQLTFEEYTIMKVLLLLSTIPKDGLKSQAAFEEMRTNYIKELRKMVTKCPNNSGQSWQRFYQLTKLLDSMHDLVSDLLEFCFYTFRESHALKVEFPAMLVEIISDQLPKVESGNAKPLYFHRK
Assay: Mineralocorticoid receptor binding assay ([3H]aldosterone displacement, MR lysate)
Settings: baculovirus-expressed MR lysate from Sf21 cells; 2-4 nM [3H]aldosterone; 16 hours at 4° C.; Cheng-Prusoff from IC50
measured_attribute: Ki (µM)

1 = N#Cc1cccc(-c2ccc3c4c2CCCC4OC(=O)N3)c1 (racemic)
2 = O=C1Nc2ccc(-c3cccc(C(F)(F)F)c3)c3c2C(CCC3)O1 (racemic)
Query: Which is greater in Ki, the first item 1 or the second item 2 ? Return value: the label identifying the chosen record.
Result: 1
(1: 0.65 µM, 2: 0.335 µM)
